Tested on: MRC5
Assay: Hoechst 33342 nuclear staining
Assay type: cell-based
Details: MRC5, 48 h read-out
property: EC50

response.value for COc1ccc(Nc2cncc(-c3cccc(NC(=O)c4ccccc4)c3)c2)cc1OC [Example 29] (field: EC50) = > 1000 nM

response.value for COc1ccc(Nc2cncc(-c3cccc(NC(=O)c4cccc(OC)c4)c3)c2)cc1 [Example 25] (field: EC50) = > 1000 nM

response.value for COc1ccc(Nc2cncc(-c3cccc(NC(C)=O)c3)c2)cc1 [Example 8] (field: EC50) = 100 to 1000 nM

response.value for COCC(=O)Nc1cccc(-c2cncc(Nc3ccc(OC)cc3)c2)c1 [Example 41] (field: EC50) = > 1000 nM

response.value for CCS(=O)(=O)Nc1cccc(-c2cncc(Nc3ccc(OC)cc3)c2)c1 [Example 4] (field: EC50) = 10 to 100 nM

response.value for COc1ccc(Nc2cncc(-c3cccc(NC(=O)c4ccccc4)c3)c2)c(OC)c1 [Example 30] (field: EC50) = > 1000 nM

response.value for COc1ccc(Nc2cncc(-c3cccc(NC(=O)C(C)C)c3)c2)cc1 [Example 26] (field: EC50) = > 1000 nM

response.value for COc1ccc(Nc2cncc(-c3cccc(NC(=O)c4cccnc4)c3)c2)cc1 [Example 13] (field: EC50) = > 1000 nM

response.value for COc1ccc(Nc2cncc(-c3cccc(NC(=O)c4ccccn4)c3)c2)cc1 [Example 17] (field: EC50) = > 1000 nM

response.value for O=C(Nc1cccc(-c2cncc(Nc3ccc(OCc4ccccc4)cc3)c2)c1)c1ccccc1 [Example 27] (field: EC50) = > 1000 nM

response.value for COc1ccc(Nc2cncc(-c3cccc(NC(=O)c4cnccn4)c3)c2)cc1 [Example 12] (field: EC50) = 100 to 1000 nM

response.value for COc1ccc(Nc2cncc(-c3cccc(NC(=O)c4cccnc4Cl)c3)c2)cc1 [Example 11] (field: EC50) = 10 to 100 nM

response.value for CCC(=O)Nc1cccc(-c2cncc(Nc3ccc(OC)cc3)c2)c1 [Example 21] (field: EC50) = > 1000 nM

response.value for COc1ccc(Nc2cncc(-c3cccc(NC(=O)c4cccs4)c3)c2)cc1 [Example 22] (field: EC50) = 100 to 1000 nM

response.value for COc1ccc(Nc2cncc(-c3cccc(NC(=O)Cc4ccccc4)c3)c2)cc1 [Example 15] (field: EC50) = > 1000 nM

response.value for COc1ccc(Nc2cncc(-c3cccc(NC(=O)c4ccncc4)c3)c2)cc1 [Example 16] (field: EC50) = < 10 nM

response.value for COc1ccc(Nc2cncc(-c3cccc(NS(=O)(=O)CCCCl)c3)c2)cc1 [Example 7] (field: EC50) = 10 to 100 nM

response.value for CCOc1ccccc1C(=O)Nc1cccc(-c2cncc(Nc3ccc(OC)cc3)c2)c1 [Example 10] (field: EC50) = > 1000 nM

response.value for COc1ccc(Nc2cncc(-c3cccc(NC(=O)c4ccco4)c3)c2)cc1 [Example 14] (field: EC50) = 100 to 1000 nM

response.value for COc1ccc(Nc2cncc(-c3cccc(NS(=O)(=O)c4ccccc4)c3)c2)cc1 [Example 23] (field: EC50) = > 1000 nM

----------
System: Jily
Assay: MTS proliferation assay
Type: cell-based
Conditions: 72 h read-out
pIC50: −log10 of the molar value.
property: pIC50

response.value for O=C(Nc1cccc(-c2cncc(Nc3ccc(OCc4ccccc4)cc3)c2)c1)c1ccccc1 [Example 27] (field: pIC50) = < 6.00

response.value for COc1ccc(Nc2cncc(-c3cccc(NS(C)(=O)=O)c3)c2)cc1 [Example 1] (field: pIC50) = 7.00 to 8.00

response.value for COc1ccc(Nc2cncc(-c3cccc(NC(=O)c4ccccc4)c3)c2)cc1OC [Example 29] (field: pIC50) = 6.00 to 7.00

response.value for COc1ccc(Nc2cncc(-c3cccc(NC(=O)c4ccccc4)c3)c2)c(OC)c1 [Example 30] (field: pIC50) = 6.00 to 7.00

response.value for CCC(=O)Nc1cccc(-c2cncc(Nc3ccc(OC)cc3)c2)c1 [Example 21] (field: pIC50) = 6.00 to 7.00

response.value for COc1ccc(Nc2cncc(-c3cccc(Nc4ccccn4)c3)c2)cc1 [Example 3] (field: pIC50) = 7.00 to 8.00

response.value for COc1ccc(Nc2cncc(-c3cccc(NC(=O)Cc4ccccc4)c3)c2)cc1 [Example 15] (field: pIC50) = 6.00 to 7.00

response.value for COc1ccc(Nc2cncc(-c3cccc(NC(=O)c4ccc(OC)cc4)c3)c2)cc1 [Example 9] (field: pIC50) = 6.00 to 7.00

response.value for COc1ccc(Nc2cncc(-c3cccc(NC(=O)C(C)C)c3)c2)cc1 [Example 26] (field: pIC50) = 7.00 to 8.00
